Entries and their measured IC50 follow.
# measured-target: Broad substrate specificity ATP-binding cassette transporter ABCG2 (Homo sapiens, UniProt Q9UNQ0)
# Sequence (Q9UNQ0 whole entry): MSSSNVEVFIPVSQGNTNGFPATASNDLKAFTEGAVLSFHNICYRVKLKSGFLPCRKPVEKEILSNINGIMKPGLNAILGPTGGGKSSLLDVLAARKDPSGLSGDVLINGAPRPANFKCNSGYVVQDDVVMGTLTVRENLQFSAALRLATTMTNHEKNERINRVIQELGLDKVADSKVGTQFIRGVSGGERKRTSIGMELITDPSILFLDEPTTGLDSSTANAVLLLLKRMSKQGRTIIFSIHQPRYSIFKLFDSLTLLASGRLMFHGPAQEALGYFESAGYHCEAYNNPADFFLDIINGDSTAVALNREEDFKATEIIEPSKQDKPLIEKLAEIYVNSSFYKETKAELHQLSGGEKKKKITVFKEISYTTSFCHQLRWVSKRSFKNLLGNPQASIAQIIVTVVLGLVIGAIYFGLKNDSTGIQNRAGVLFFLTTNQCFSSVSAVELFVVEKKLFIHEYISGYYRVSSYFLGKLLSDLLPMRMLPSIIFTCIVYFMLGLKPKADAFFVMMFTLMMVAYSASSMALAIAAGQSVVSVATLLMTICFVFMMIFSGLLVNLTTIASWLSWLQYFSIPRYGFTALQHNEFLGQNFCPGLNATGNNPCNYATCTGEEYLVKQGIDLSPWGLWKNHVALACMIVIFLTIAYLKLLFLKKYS
# measurement-description: Inhibition of ABCG2 in human H460/MX20 cells assessed as potentiation of mitoxantrone induced antiproliferative activity by measuring mitoxantrone IC50 at 3 uM preincubated for 2 hrs followed by mitoxantrone addition measured after 72 hrs by MTT assay (Rvb = 6.161 +/- 0.172 microM)
Please respond with the number in nM and leave the unit unwritten.

INSERT INTO results (mol_smiles, units_label, reported_measurement) VALUES
  ('CCCc1ccc(NC(=O)c2ccccc2NC(=O)Nc2ccc(Br)cc2)cc1', 'nM', 2120),
  ('COc1cccc(-n2nnc(-c3ccccc3NC(=O)c3ccc(N)cc3)n2)c1', 'nM', 491);

As a next step, examine the compound that follows.
# return recorded IC50 for input `COc1cccc(-n2nnc(-c3ccccc3NC(=O)c3ccc(NC(=O)CBr)cc3)n2)c1`
446

----------
# measurement-description: Inhibition of ABCG2 in human H460/MX20 cells assessed as potentiation of mitoxantrone induced antiproliferative activity by measuring mitoxantrone IC50 at 3 uM preincubated for 2 hrs followed by mitoxantrone addition measured after 72 hrs by MTT assay (Rvb = 6.161 +/- 0.172 microM)
Reported IC50 by item:
Response body: numeric value in nM, unit text excluded.

INSERT INTO assay_data (mol_smiles, reported_metric, reported_measurement) VALUES
  ('COc1cccc(-n2nnc(-c3ccccc3NC(=O)Nc3ccc(N=C=S)cc3)n2)c1', 'IC50', 667),
  ('CCCc1ccc(NC(=O)c2ccccc2NC(=O)Nc2ccc([N+](=O)[O-])cc2)cc1', 'IC50', 482),
  ('COc1cccc(-n2nnc(-c3ccccc3NC(=O)Nc3ccccc3[N+](=O)[O-])n2)c1', 'IC50', 978),
  ('COc1cccc(-n2nnc(-c3ccccc3NC(=O)c3ccc(N=[N+]=[N-])cc3)n2)c1', 'IC50', 1500),
  ('COc1ccc(C(=O)Nc2ccccc2-c2nnn(-c3ccc(OC)cc3)n2)cc1', 'IC50', 505),
  ('CCCc1ccc(NC(=O)c2ccccc2NC(=O)Nc2ccccc2[N+](=O)[O-])cc1', 'IC50', 2560);

Give me measured IC50, please, for this compound: `CCCc1ccc(NC(=O)c2ccccc2NC(=O)c2ccc([N+](=O)[O-])cc2)cc1`
783

Identify measured IC50 corresponding to `COc1ccc(-n2nnc(-c3ccccc3NC(=O)Nc3ccc([N+](=O)[O-])cc3)n2)cc1`
541

Answer with the recorded IC50 of `COc1ccc2c3c([nH]c2c1)[C@H](C=C(C)C)N1C(=O)[C@@H]2CCCN2C(=O)[C@@H]1C3` only.
451

----------
# measurement-description: Inhibition of ABCG2 in human H460/MX20 cells assessed as potentiation of mitoxantrone induced antiproliferative activity by measuring mitoxantrone IC50 at 1 uM preincubated for 2 hrs followed by mitoxantrone addition measured after 72 hrs by MTT assay (Rvb = 6.161 +/- 0.172 microM)
reported-metric: pIC50
Please note pIC50 is a logarithmic value: minus log10 of concentration in mol/L. Answer with that number alone.

INSERT INTO measurements (mol_smiles, reported_measurement) VALUES
  ('COc1cccc(-n2nnc(-c3ccccc3NC(=O)Nc3ccc(N=[N+]=[N-])cc3)n2)c1', 6.04),
  ('COc1cccc(-n2nnc(-c3ccccc3NC(=O)Nc3ccc(NC(=O)CBr)cc3)n2)c1', 6.10),
  ('COc1cccc(-n2nnc(-c3ccccc3NC(=O)c3ccc([N+](=O)[O-])cc3)n2)c1', 6.23),
  ('COc1ccc(C(=O)Nc2ccccc2-c2nnn(-c3ccc(OC)cc3)n2)cc1', 6.13),
  ('CCCc1ccc(NC(=O)c2ccccc2NC(=O)Nc2ccc([N+](=O)[O-])cc2)cc1', 6.21);

Now for another entry.
Entry `COc1cccc(-n2nnc(-c3ccccc3NC(=O)Nc3ccc(N)cc3)n2)c1` needs its pIC50 filled in; supply it.
6.08

----------
# measurement-description: Inhibition of ABCG2 in human H460/MX20 cells assessed as potentiation of mitoxantrone induced antiproliferative activity by measuring mitoxantrone IC50 at 10 uM preincubated for 2 hrs followed by mitoxantrone addition measured after 72 hrs by MTT assay (Rvb = 6.161 +/- 0.172 microM)
Overview of reported pIC50 across a group of molecules:
The quantity pIC50 is defined as the negative base-10 logarithm of the molar concentration.

Below, each entry is followed by its recorded pIC50 result.
INSERT INTO assay_data (mol_smiles, reported_measurement) VALUES
  ('CCCc1ccc(C(=O)Nc2ccccc2-c2nnn(-c3cccc(OC)c3)n2)cc1', 6.88),
  ('COc1cccc(-n2nnc(-c3ccccc3NC(=O)Nc3ccc([N+](=O)[O-])cc3)n2)c1', 6.39),
  ('COc1ccc(C(=O)Nc2ccccc2-c2nnn(-c3ccc(OC)cc3)n2)cc1', 6.31);

Retrieve pIC50 measured for `O=C(Nc1ccc([N+](=O)[O-])cc1)Nc1ccccc1C(=O)Nc1ccc(C(F)(F)F)cc1` and print it.
6.34

Fill in reported pIC50 for this entry: `COc1ccc(-n2nnc(-c3ccccc3NC(=O)c3ccc([N+](=O)[O-])cc3)n2)cc1`
6.42

Supply recorded pIC50 for `COc1cccc(-n2nnc(-c3ccccc3NC(=O)Nc3ccc(NC(C)=O)cc3)n2)c1` here.
6.49

Identify the reported pIC50 for the following entry. `CCCc1ccc(NC(=O)c2ccccc2NC(=O)c2ccc(OC)cc2)cc1`
5.78

Annotate the molecule `COc1cccc(-n2nnc(-c3ccccc3NC(=O)c3ccc(NC(C)=O)cc3)n2)c1` with its measured pIC50.
5.92

----------
# measured-target: Broad substrate specificity ATP-binding cassette transporter ABCG2 (Homo sapiens)
# Sequence (Q9UNQ0 whole entry): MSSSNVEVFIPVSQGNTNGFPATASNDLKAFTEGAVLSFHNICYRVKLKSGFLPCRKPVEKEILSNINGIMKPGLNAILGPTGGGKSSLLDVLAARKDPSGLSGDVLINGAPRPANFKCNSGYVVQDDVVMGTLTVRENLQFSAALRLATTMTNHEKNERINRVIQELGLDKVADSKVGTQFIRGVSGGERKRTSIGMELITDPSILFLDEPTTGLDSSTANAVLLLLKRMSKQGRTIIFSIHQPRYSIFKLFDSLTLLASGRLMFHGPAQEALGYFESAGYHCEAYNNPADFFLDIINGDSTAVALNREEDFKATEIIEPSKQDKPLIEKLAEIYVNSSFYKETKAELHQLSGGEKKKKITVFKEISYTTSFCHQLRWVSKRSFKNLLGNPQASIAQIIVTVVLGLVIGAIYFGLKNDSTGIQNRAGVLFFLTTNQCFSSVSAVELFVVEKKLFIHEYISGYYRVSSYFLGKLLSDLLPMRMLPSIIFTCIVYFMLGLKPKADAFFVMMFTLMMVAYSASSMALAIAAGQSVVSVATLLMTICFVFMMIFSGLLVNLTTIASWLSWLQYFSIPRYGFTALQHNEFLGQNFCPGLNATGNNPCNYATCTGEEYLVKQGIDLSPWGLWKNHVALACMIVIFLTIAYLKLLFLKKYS
# measurement-description: Inhibition of ABCG2 in human H460/MX20 cells assessed as potentiation of mitoxantrone induced antiproliferative activity by measuring mitoxantrone IC50 at 10 uM preincubated for 2 hrs followed by mitoxantrone addition measured after 72 hrs by MTT assay (Rvb = 6.161 +/- 0.172 microM)
Note to self: IC50 under 1000 nM means Satisfied, ties and anything higher get Not satisfied.

Use the examples below as a reference point.
INSERT INTO results (mol_smiles, cat) VALUES
  ('COc1cccc(-n2nnc(-c3ccccc3NC(=O)Nc3ccc(NC(=O)CBr)cc3)n2)c1', 'Satisfied'),
  ('CCCc1ccc(NC(=O)c2ccccc2NC(=O)Nc2ccccc2[N+](=O)[O-])cc1', 'Not satisfied'),
  ('COc1cccc(-n2nnc(-c3ccccc3NC(=O)c3ccccc3[N+](=O)[O-])n2)c1', 'Not satisfied'),
  ('COc1ccc(-n2nnc(-c3ccccc3NC(=O)Nc3ccc([N+](=O)[O-])cc3)n2)cc1', 'Satisfied');

Please check: IC50 for `CCCc1ccc(NC(=O)c2ccccc2NC(=O)c2ccc([N+](=O)[O-])cc2)cc1` , strictly under 1000 nM or not?
Satisfied

Reference for the values: BindingDB's records for doi:10.1016/j.bmcl.2017.09.009
